B1: library; numbered along this chain (parent)
chain: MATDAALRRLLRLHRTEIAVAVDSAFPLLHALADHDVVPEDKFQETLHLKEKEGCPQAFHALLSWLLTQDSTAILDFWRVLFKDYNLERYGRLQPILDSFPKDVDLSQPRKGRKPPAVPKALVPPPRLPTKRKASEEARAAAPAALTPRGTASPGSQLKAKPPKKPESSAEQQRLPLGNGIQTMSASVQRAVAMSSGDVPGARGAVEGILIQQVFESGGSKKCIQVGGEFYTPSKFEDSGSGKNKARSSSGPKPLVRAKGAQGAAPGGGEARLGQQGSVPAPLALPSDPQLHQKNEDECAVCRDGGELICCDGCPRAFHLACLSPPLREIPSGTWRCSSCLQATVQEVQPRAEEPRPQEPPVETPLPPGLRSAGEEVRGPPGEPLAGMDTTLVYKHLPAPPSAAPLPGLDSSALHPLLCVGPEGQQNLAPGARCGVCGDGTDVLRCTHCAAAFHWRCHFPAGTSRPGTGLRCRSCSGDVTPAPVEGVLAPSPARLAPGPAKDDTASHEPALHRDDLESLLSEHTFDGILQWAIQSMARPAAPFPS

# Variants of: B1
# Method Notes: AIRE transcriptional activation functional score (insulin promoter-GFP; nonsense median 0, synonymous median 1) (normalised score); higher = higher AIRE activity (more reporter activation)
# Condition Info: with insulin promoter-GFP reporter in HEK293
Could you please classify the records by AIRE transcriptional activation functional score using these ranges: zone 1 (below 0.6), zone 2 (0.6 to below 1), zone 3 (1 or more)

Completed entries (count: 5):
1) T16H	zone 1
2) A246C	zone 3
3) A142Y	zone 3
4) L146P	zone 2
5) C340T	zone 3

Let's switch to this variant now.
Which band does C434R fall in?
zone 1
